Origin of the recorded values: ChEMBL document CHEMBL1126841

Target: UniProt P46002
Sequence (P46002 whole entry): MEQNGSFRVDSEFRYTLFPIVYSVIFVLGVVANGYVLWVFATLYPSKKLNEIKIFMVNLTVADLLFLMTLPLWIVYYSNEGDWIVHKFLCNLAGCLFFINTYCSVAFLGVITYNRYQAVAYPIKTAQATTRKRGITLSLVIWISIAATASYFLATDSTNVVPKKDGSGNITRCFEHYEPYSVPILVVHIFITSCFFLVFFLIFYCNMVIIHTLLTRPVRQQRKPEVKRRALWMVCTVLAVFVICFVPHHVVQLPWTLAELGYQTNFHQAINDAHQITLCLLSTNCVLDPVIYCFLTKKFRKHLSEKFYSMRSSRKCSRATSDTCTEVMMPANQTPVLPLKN
Experiment: Intravenous dose required to reduce the arterial blood pressure caused by PAF by 50% in rats
Type: functional
Response field class: string, computed from recorded ID50 by ranges lower bin: < 0.03 mg/kg; middle bin: ≥ 0.03 mg/kg and < 0.05 mg/kg; upper bin: ≥ 0.05 mg/kg

[[record]]
compound = "Cc1ncccc1C(C#N)N1CCN(C(=O)CC(NC(=O)c2cccnc2O)c2ccccc2)CC1 (stereo not drawn)"
category = "upper bin"

[[record]]
compound = "CC(=O)N(CC(=O)N1CCN(C(C#N)c2cccnc2C)CC1)C(c1ccccc1)c1ccccc1 (stereo not drawn)"
category = "middle bin"

[[record]]
compound = "Cc1ncccc1C(C#N)N1CCN(C(=O)CC(O)(c2ccccc2)C(F)(F)F)CC1 (stereo not drawn)"
category = "lower bin"

[[record]]
compound = "Cc1ncccc1C(C#N)N1CCN(C(=O)CN(C=O)C(c2ccccc2)c2ccccc2)CC1 (stereo not drawn)"
category = "lower bin"

[[record]]
compound = "Cc1ncccc1C(C#N)N1CCN(C(=O)CNC2c3ccccc3-c3ccccc32)CC1 (stereo not drawn)"
category = "upper bin"

[[record]]
compound = "CNC(CC(=O)N1CCN(C(C#N)c2cccnc2C)CC1)c1ccccc1 (stereo not drawn)"
category = "upper bin"

[[record]]
compound = "Cc1ncccc1C(C#N)N1CCN(C(=O)CC(Nc2ccccc2)c2ccccc2)CC1 (stereo not drawn)"
category = "middle bin"

[[record]]
compound = "Cc1ncccc1C(C#N)N1CCN(C(=O)CC(O)(c2ccccc2)c2ccccc2)CC1 (stereo not drawn)"
category = "middle bin"

[[record]]
compound = "CCOC(=O)C(CC(=O)N1CCN(C(C#N)c2cccnc2C)CC1)(c1ccccc1)c1ccccc1 (stereo not drawn)"
category = "upper bin"

[[record]]
compound = "Cc1ncccc1C(C#N)N1CCN(C(=O)C=C(c2ccccc2)c2ccccc2)CC1 (stereo not drawn)"
category = "middle bin"

[[record]]
compound = "Cc1ncccc1C(C#N)N1CCN(C(=O)CC(c2ccccc2)C(F)(F)F)CC1 (stereo not drawn)"
category = "lower bin"

[[record]]
compound = "Cc1ncccc1C(C#N)N1CCN(C(=O)CC(c2ccccc2)N(Cc2ccccc2)Cc2ccccc2)CC1 (stereo not drawn)"
category = "upper bin"

[[record]]
compound = "Cc1ncccc1C(C#N)N1CCN(C(=O)CC(c2ccccc2)N2C(=O)CCC2=O)CC1 (stereo not drawn)"
category = "middle bin"

[[record]]
compound = "Cc1ncccc1C(C#N)N1CCN(C(=O)CC(NS(C)(=O)=O)c2ccccc2)CC1 (stereo not drawn)"
category = "lower bin"

[[record]]
compound = "Cc1ncccc1C(C#N)N1CCN(C(=O)[C@H](C)NC(c2ccccc2)c2ccccc2)CC1 (stereo partly drawn)"
category = "lower bin"

[[record]]
compound = "Cc1ncccc1C(C#N)N1CCN(C(=O)CON=C(c2ccccc2)c2ccccc2)CC1 (stereo not drawn)"
category = "upper bin"

[[record]]
compound = "Cc1ncccc1C(C#N)N1CCN(C(=O)[C@H](CO)NC(c2ccccc2)c2ccccc2)CC1 (stereo partly drawn)"
category = "lower bin"

[[record]]
compound = "Cc1ncccc1C(C#N)N1CCN(C(=O)CC(O)(c2ccccc2)c2cccnc2)CC1 (stereo not drawn)"
category = "middle bin"

[[record]]
compound = "Cc1ncccc1C(C#N)N1CCN(C(=O)CC(NC(=O)OCc2ccccc2)c2ccccc2)CC1 (stereo not drawn)"
category = "lower bin"

[[record]]
compound = "Cc1ncccc1C(C#N)N1CCN(C(=O)CC(C)(O)c2ccccc2)CC1 (stereo not drawn)"
category = "lower bin"

[[record]]
compound = "COC(=O)NC(CC(=O)N1CCN(C(C#N)c2cccnc2C)CC1)c1ccc(C(F)(F)F)cc1 (stereo not drawn)"
category = "lower bin"

[[record]]
compound = "Cc1ncccc1C(C#N)N1CCN(C(=O)CC(NS(=O)(=O)c2ccccc2)c2ccccc2)CC1 (stereo not drawn)"
category = "middle bin"

[[record]]
compound = "Cc1ncccc1C(C#N)N1CCN(C(=O)CNC(C)(c2ccccc2)c2ccccc2)CC1 (stereo not drawn)"
category = "upper bin"

[[record]]
compound = "Cc1ncccc1C(C#N)N1CCN(C(=O)CC(NC(=O)OCC(C)C)c2ccccc2)CC1 (stereo not drawn)"
category = "lower bin"

[[record]]
compound = "Cc1ncccc1C(C#N)N1CCN(C(=O)CC(NC(=O)c2ccccc2)c2ccccc2)CC1 (stereo not drawn)"
category = "upper bin"

[[record]]
compound = "CCc1ncccc1C(C#N)N1CCN(C(=O)CNC(c2ccccc2)c2ccccc2)CC1 (stereo not drawn)"
category = "upper bin"

[[record]]
compound = "Cc1ncccc1C(C#N)N1CCN(C(=O)CCNC(c2ccccc2)c2ccccc2)CC1 (stereo not drawn)"
category = "middle bin"

[[record]]
compound = "Cc1ncccc1C(C#N)N1CCN(C(=O)CC(c2ccccc2)N2CCOC2=O)CC1 (stereo not drawn)"
category = "lower bin"

[[record]]
compound = "Cc1ncccc1C(C#N)N1CCN(C(=O)CC(NC(=O)Oc2ccccc2)c2ccccc2)CC1 (stereo not drawn)"
category = "middle bin"

[[record]]
compound = "Cc1ncccc1C(C#N)N1CCN(C(=O)CC(NC(=O)c2ncccc2O)c2ccccc2)CC1 (stereo not drawn)"
category = "middle bin"

[[record]]
compound = "Cc1ncccc1C(C#N)N1CCN(C(=O)CC(c2ccccc2)N(C)Cc2ccccc2)CC1 (stereo not drawn)"
category = "lower bin"

[[record]]
compound = "COC(=O)NC(CC(=O)N1CCN(C(C#N)c2cccnc2C)CC1)c1ccccc1 (stereo not drawn)"
category = "lower bin"

[[record]]
compound = "Cc1ncccc1C(C#N)N1CCN(C(=O)COC(c2ccccc2)c2ccccc2)CC1 (stereo not drawn)"
category = "middle bin"

[[record]]
compound = "Cc1ncccc1C(C#N)N1CCN(C(=O)CNC(c2ccccc2)c2ccccc2)CC1 (stereo not drawn)"
category = "lower bin"

[[record]]
compound = "Cc1ncccc1C(C#N)N1CCN(C(=O)CC(NC(=O)N2CCCC2)c2ccccc2)CC1 (stereo not drawn)"
category = "upper bin"

[[record]]
compound = "Cc1ncccc1C(C#N)N1CCN(C(=O)CC(c2ccccc2)N2CCCS2(=O)=O)CC1 (stereo not drawn)"
category = "middle bin"

